- system: G-protein coupled receptor 55 (Homo sapiens) (UniProt Q9Y2T6)
- Sequence (Q9Y2T6 whole entry, looked up): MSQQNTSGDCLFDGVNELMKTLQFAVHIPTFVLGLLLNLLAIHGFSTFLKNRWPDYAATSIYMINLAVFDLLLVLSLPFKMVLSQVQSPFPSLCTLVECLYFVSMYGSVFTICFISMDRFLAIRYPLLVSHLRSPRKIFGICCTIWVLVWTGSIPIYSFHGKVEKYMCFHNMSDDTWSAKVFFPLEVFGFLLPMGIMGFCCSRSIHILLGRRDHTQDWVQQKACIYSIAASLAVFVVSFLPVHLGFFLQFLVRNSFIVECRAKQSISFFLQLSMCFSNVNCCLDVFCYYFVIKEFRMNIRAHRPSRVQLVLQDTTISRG
- assay_name: GPR55 antagonists blocking LPI-driven arrestin recruitment, primary screen, imaging, U2OS, beta-arrestin-GFP, LPI agonist (AID 2013);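 note: U2OS cells stably carrying GPR55 and arrestin-GFP stimulated by 5 µM LPI near EC80; imaged beta-arrestin-GFP aggregate spots per cell after agonist stimulation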
- test_parameters: U2OS GPR55 beta-arrestin-GFP translocation imaging, LPI antagonism; at 10 µM
The whole screen tested about 290,000 compounds, of which about 370 (0.13%) were called active.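 Rule for the calls: active = spots per cell inhibited over 60%, with over 100 cells counted and total cytoplasm intensity under 500,000; inconclusive = wells with under 100 cells, flagged as likely toxic; inactive = the rest.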 This is one part of a sample in which actives are shown more often than they occur. Potency and affinity values are given separately.
Field 'call' accepts active, inactive

| molecule | class_label |
| --- | --- |
| O=S(=O)(NC1CCCC1)OCC(Cl)(Cl)Cl | inactive |
| O=c1[nH]c(=O)n(-c2ccccc2)c(O)c1/C=C1/C(c2ccccc2)=Nc2ccccc21 | active |
| COC(=O)C1=Nc2ccccc2/C1=C\c1c(O)n(-c2ccc(Br)cc2)c(=O)[nH]c1=O | inactive |
| CCOC(=O)C(O)(c1ccc(N(CC)C(=O)COc2ccccc2)cc1)C(F)(F)F (stereo not given) | inactive |
| O=c1[nH]c(=O)n(-c2ccccc2F)c(O)c1/C=C1\C=Nc2ccccc21 | inactive |

Shift focus to the following entry.
Which result was noted for this molecule in the test: "CN(Cc1ccccc1)C(=O)CN1CCCC1=O" inactive

Values from PubChem BioAssay AID2013
